Provenance of the data: patent US9359363B2

System: TDP-43 inclusions in PC12 cells expressing WT TDP-43::GFP
procedure.summary: High-throughput screen for inhibition of TDP-43 inclusion formation in inducible TDP-43::GFP PC12 cells (IN Cell Analyzer)
study.conditions: read-out: Inhibition of TDP-43 Inclusion Formation EC50; PC12 TDP-43::GFP cells; arsenite 50 μM, 18 hrs; representative values
Give measured EC50 for each item. Keep answers brief.
// return numeric value only (unit: nM, not printed)

QUERY: Given COc1ccc(C2C(C(=O)Nc3ccccc3OC)=C(C)Nc3nc4ccccc4n32)cc1 (centres unmarked) [Compound 5] , state its recorded EC50.
RESULT: 306

QUERY: What would you report for COc1ccc(NC(=O)C(Cc2ccccc2)NS(=O)(=O)c2cccc3cccnc23)cc1 (centres unmarked) [Compound 6] ?
RESULT: 15

QUERY: What would you report for CCN(CC1CCCN(CCc2ccccc2OC)C1)C(=O)c1cc2ccccc2[nH]1 (centres unmarked) [Compound 2] ?
RESULT: 74

QUERY: What would you report for COc1cc(NC(=O)CCC2CCCN(Cc3ccc(F)c(OC)c3)C2)cc(OC)c1 (centres unmarked) [Compound 3] ?
RESULT: 39

QUERY: What would you report for COc1cccc(CN2CCN(C(=O)c3cc4ccccc4[nH]3)CCC2=O)c1 [Compound 2-8] ?
RESULT: 180

QUERY: What would you report for CCc1ccc(NC(=O)C(Cc2ccccc2)NS(=O)(=O)c2cccc3cccnc23)cc1 (centres unmarked) [Compound 7] ?
RESULT: 139

QUERY: What would you report for Cc1cc2cc(CCNS(=O)(=O)c3ccc(Cl)cc3)c(=O)[nH]c2cc1C [Compound 2-5] ?
RESULT: 1290

QUERY: What would you report for CC(C)(C)c1ccc(S(=O)(=O)Nc2ccc(SCc3nc(OCC(F)(F)F)cc(OCC(F)(F)F)n3)cc2)cc1 [Compound 2-1] ?
RESULT: 152
